# Tested on: Antibody to Immunogen VII
# Format: binding, sheep
# runConditions: Cross-reactants at 100 ng/ml; Antibody to Immunogen VII
Measured %B/B0, listed per entry.
quantityKind: %B/B0 (%)

COc1ccccc1CC(=O)c1cn(CCCCCO)c2ccccc12 [JWH 250 N-(5-hydroxypentyl) metabolite] ... 96.13
CCCCCn1c(C)c(C(=O)c2ccc(OC)c3ccccc23)c2ccccc21 [JWH-098] ... 82.85
CCCCCn1cc(C(=O)Cc2ccccc2OC)c2ccccc21 [JWH-250] ... 97.23
CCCCn1cc(C(=O)c2cccc3ccccc23)c2cccc(O)c21 [JWH-073 7-hydroxyindole metabolite] ... 61.78
CC(F)CCCn1cc(C(=O)c2cccc3ccccc23)c2ccccc21 (single isomer, unassigned) [AM-2201 N-(4-fluoropentyl) isomer] ... 52.70
CC(O)CCCn1cc(C(=O)c2cccc3ccccc23)c2ccccc21 (racemic) ... 57.37
CCCCCCC(C)(C)c1cc(OC)c([C@@H]2C=C(CO)[C@@H]3C[C@H]2C3(C)C)c(OC)c1 [HU-308] ... 95.95
CCCCCn1cc(C(=O)c2ccc(CC)c3ccccc23)c2ccccc21 [JWH-210] ... 96.62
CCCCn1c(C)c(C(=O)c2cccc3ccccc23)c2ccccc21 [JWH-016] ... 19.31
CCCCCn1cc(C(=O)c2ccc(CCC)c3ccccc23)c2ccccc21 [JWH-182] ... 98.40
CCCCCn1cc(C(=O)c2ccc(OC)c3ccccc23)c2ccccc21 [JWH-081] ... 86.72
CCCCCn1cc(C(=O)c2cccc3c(OC)cccc23)c2ccccc21 [JWH-081 5-methoxynaphthyl isomer] ... 94.16
CCCCCn1cc(C(=O)c2ccc(CC)c3ccccc23)c2cc(O)ccc21 [JWH-210 5-hydroxyindole metabolite] ... 100.43
CCCCCn1cc(C(=O)Cc2ccccc2OC)c2cc(O)ccc21 [JWH 250 5-hydroxyindole metabolite] ... 99.88
CCCCCn1cc(C(=O)Cc2cccc(C)c2)c2ccccc21 [JWH 251 3-methylphenyl isomer] ... 99.32
O=C(c1ccc(I)cc1)c1cn(CCCCCF)c2ccccc12 [AM-694 4-iodo isomer] ... 98.71
CCCCCCn1cc(C(=O)c2cccc3ccccc23)cc1-c1ccccc1 [JWH-147] ... 99.32
CCCCCCCn1cc(C(=O)c2cccc3ccccc23)c2ccccc21 [JWH-020] ... 81.30
COc1ccc(C(=O)c2cn(CCCCCO)c3ccccc23)cc1 [RCS-4 N-(5-hydroxypentyl) metabolite] ... 94.55
O=C(c1cccc2ccccc12)c1cn(CCCCO)c2ccccc12 [JWH-073 N-(4-hydroxybutyl) metabolite] ... 48.81
COc1ccc(CC(=O)c2cn(CCC3CCCCC3)c3ccccc23)cc1 [RCS-8 4-methoxy isomer] ... 98.21
O=C(c1ccc(Cl)c2ccccc12)c1cn(CCCCCO)c2ccccc12 [JWH-398 N-(5-hydroxypentyl) metabolite] ... 82.97
CCCCCn1cc(C(=O)c2cccc3ccccc23)c2c(O)cccc21 [JWH-018 4-hydroxyindole metabolite] ... 89.96
O=C(c1cccc2ccccc12)c1cn(CCN2CCOCC2)c2ccccc12 [WIN 55,225 (other name JWH-200), JWH-200] ... 42.85
CCCCCn1cc(C(=O)c2cccc3ccc(OC)cc23)c2ccccc21 [JWH-164 (JWH-081 7-methoxynaphthyl isomer), JWH-081 7-methoxynaphthyl isomer] ... 96.13
CCCCCn1cc(C(=O)Cc2ccccc2Cl)c2ccccc21 [JWH-203] ... 99.08
CCCCCn1cc(C(=O)Cc2ccc(OC)cc2)c2ccccc21 [JWH-201] ... 100.25
CC(C)(C)Cn1cc(C(=O)c2cccc3ccccc23)c2ccccc21 [JWH-018 N-(2,2-dimethylpropyl) isomer] ... 52.46
CCCCCn1cc(C(=O)c2ccc(C)c3ccccc23)c2ccccc21 [JWH-122] ... 89.37
O=C(c1cccc2ccccc12)c1cn(CCN2CCOCC2)c2cccc(O)c12 [JWH-200 4-hydroxyindole metabolite] ... 91.15
CCCCn1cc(C(=O)c2ccc(C)c3ccccc23)c2ccccc21 [JWH-073 4-methylnaphthyl analogue] ... 78.36
CCCCCC(C)n1c(C)c(C(=O)c2cccc3ccccc23)c2ccccc21 (stereo not drawn) [JWH-011] ... 57.43
CCCCCc1cc(O)c2c(c1)OC(C)(C)[C@@H]1CCC(C)=C[C@@H]21 [Delta 9 THC] ... 96.76

---

# Test system: antiserum raised to Immunogen I (Hapten A-BTG)
# assayInfo: Competitive ELISA microtiter plate assay (Example 19), antiserum raised to Immunogen I, Hapten A-HRP conjugate as detection reagent
# Assay type: binding, sheep
# runConditions: Table 2; CR based on 100% for JWH-018
Rule: % Cross-reactivity below 600% gives y, anything at or above gives n.

O=C(c1cccc2ccccc12)c1cn(CCCCCO)c2ccccc12 [JWH-018 N-(5-hydroxypentyl) metabolite] ... n
CCCCn1cc(C(=O)c2cccc3ccccc23)c2ccccc21 ... y
CCCCCn1cc(C(=O)c2cccc3ccccc23)c2cc(O)ccc21 [JWH-018 5-hydroxyindole metabolite] ... n
O=C(c1cccc2ccccc12)c1cn(CCN2CCOCC2)c2ccccc12 ... n
CCCCCn1cc(C(=O)c2cccc3ccccc23)c2ccccc21 ... y
CCCCCn1cc(C(=O)c2cccc3ccccc23)c2c(O)cccc21 [JWH-018 4-hydroxyindole metabolite] ... y
CCCCCn1cc(C(=O)c2cccc3ccccc23)c2ccc(O)cc21 [JWH-018 6-hydroxyindole metabolite] ... y
O=C(O)CCCCn1cc(C(=O)c2cccc3ccccc23)c2ccccc21 [JWH-018 N-pentanoic acid metabolite] ... n
O=C(c1cccc2ccccc12)c1c[nH]c2ccccc12 ... y

---

# System: Antibody to Immunogen VII
# Format: binding, sheep
# runConditions: Cross-reactants at 100 ng/ml; Antibody to Immunogen VII
quantityKind: %B/B0 (%)

O=C(c1cccc2ccccc12)c1c[nH]c2ccccc12 [3-(1-naphthoyl)-1H-Indole, 3-(1-naphthoyl)-1H-indole] ... 80.08
CN1CCCCC1Cn1cc(C(=O)c2cccc3ccccc23)c2ccccc21 (stereo not drawn) [AM-1220] ... 49.71
CCCCn1cc(C(=O)c2cccc3ccccc23)c2c(O)cccc21 [JWH-073 4-hydroxyindole metabolite] ... 82.82

---

# Test system: Antibody to Immunogen VII
# Assay type: binding, sheep
# runConditions: Cross-reactants at 100 ng/ml; Antibody to Immunogen VII
Note to self: values exactly at 90% are true. So %B/B0 at or above 90% is true, below is false.

C=CCCCn1cc(C(=O)c2cccc3ccccc23)c2ccccc21 ... false
CCCCCn1cc(C(=O)c2cccc3ccccc23)c2cc(O)ccc21 [JWH-018 5-hydroxyindole metabolite] ... false
CCCCCn1cc(C(=O)c2ccccc2OC)c2ccccc21 [RCS-4 2-methoxy isomer] ... false
CCCCCn1c(C)c(C(=O)c2cccc3ccccc23)c2ccccc21 ... false
O=C(c1ccc2ccccc2c1)c1cn(CCN2CCOCC2)c2ccccc12 [JWH-200 2'-naphthyl isomer] ... true
CCCCCn1cc(C(=O)c2ccc(Cl)c3ccccc23)c2ccccc21 ... true

---

Measured %B/B0, listed per entry.
# Tested on: Antibody to Immunogen VII
# Assay type: binding, sheep
# runConditions: Cross-reactants at 100 ng/ml; Antibody to Immunogen VII
quantityKind: %B/B0 (%)

CCCCn1cc(C(=O)c2cccc3ccccc23)c2ccc(O)cc21 [JWH-073 6-hydroxyindole metabolite] ... 61.83
CC(O)CCn1cc(C(=O)c2cccc3ccccc23)c2ccccc21 (stereo not shown) [JWH-073 N-(3-hydroxybutyl) metabolite] ... 43.39
Cc1ccc(C(=O)c2cn(CCCCCO)c3ccccc23)c2ccccc12 [JWH-122 N-(5-hydroxypentyl) metabolite] ... 83.65
CCCCn1c(O)c(C(=O)c2cccc3ccccc23)c2ccccc21 [JWH-073 2-hydroxyindole metabolite] ... 92.65
CCCCn1cc(C(=O)c2c(C)ccc3ccccc23)c2ccccc21 [JWH 073 2-methylnaphthyl analog] ... 76.74
CCCCCn1cc(C(=O)c2ccc3ccccc3c2)c2ccccc21 [JWH 018 2'-naphthyl isomer] ... 94.98
O=C(O)CCCCn1cc(C(=O)c2cccc3ccccc23)c2ccccc21 [JWH-018 N-pentanoic acid metabolite] ... 53.02
OCCc1c[nH]c2ccc(O)cc12 [5-hydroxytryptophol] ... 98.45
COc1ccccc1CC(=O)c1cn(CCCCCC(=O)O)c2ccccc12 [JWH 250 N-(5-carboxypentyl) metabolite] ... 97.60
CS(=O)(=O)O.Cc1c(C(=O)c2cccc3ccccc23)c2cccc3c2n1[C@@H](CN1CCOCC1)CO3 [Win 55,212-3 mesylate, Win 55,212-3] ... 32.31
CCCn1c(C)c(C(=O)c2cccc3ccccc23)c2ccccc21 [JWH-015] ... 17.84
CCCCCn1cc(C(=O)C23CC4CC(CC(C4)C2)C3)c2ccccc21 [JWH 018 adamantyl analog] ... 94.48
CCCCCn1cc(C(=O)Cc2ccc(Cl)cc2)c2ccccc21 [JWH-206 (JWH-203 4-chloro isomer), JWH-203 4-chloro isomer] ... 97.17
CCCCCn1cc(C(=O)c2cccc3ccccc23)c2ccccc21 [JWH-018] ... 67.66
CN1CCCCC1Cn1cc(C(=O)c2ccccc2I)c2ccccc21 (stereo not shown) [AM-2233] ... 72.46
O=C(c1cccc2ccccc12)c1cn(CCN2CCOCC2)c2cc(O)ccc12 [JWH-200 6-hydroxyindole metabolite] ... 65.52
